Entries and their measured TGI follow.
Tested on: U251 CNS
Experiment: NCI tumour cell line growth inhibition, 48 h
Value expressed in µM; do not type the unit.

Consider the reported TGI for these molecules:
> print(dat)
                                   molecule  assay.result
1  CC(C)c1ccc2nc3ccc(C(=O)NCCN(C)C)cn3c(=O)c2c1          39.9
2  Nc1cc(N)c2nc(-c3ccccc3)c(Oc3ccc(F)cc3)nc2c1          78.6
3                       N#CC(C#N)SCc1ccccc1          56.6
4     COc1cc2c3c(cc(Cl)nc3c1OC)C(=O)C(=O)N2          30.3
5       COc1cc2nncc(Sc3cnnc4ccccc34)c2cc1OC          67.5

Look up TGI: COc1cc2[nH]c(=O)c3cc(-c4ccccc4)cc4c(Cl)nc(c1OC)c2c43 62.5

What measured TGI goes with CN(C)c1ccc(/C=c2/c3ccccc3n3c2cc(-c2ccccc2)[n+]3C)cc1 ? 1.15

Returns the measured TGI for the input molecule. Input: COc1ccc2c(c1)-c1c(c3cc(OC)ccc3n1CCN(C)C)CC2 24.8

What value of TGI has been reported for the following molecule? COc1cccc(N2C(=O)CS(=O)(=O)C2c2cccc(Oc3ccccc3)c2)c1 (centres undefined) 49.7

Fill in: TGI of COc1ccc(C(C2=C(C)C(=O)c3ccccc3C2=O)c2ccc(C(C)C)cc(=O)c2O)cc1 (centres undefined) is ___ 10.9

Can you share its TGI? I mean this molecule: Cc1cc(N(CCNc2ccnc3cc(Cl)ccc23)Cc2ccc3c(c2)OCO3)nc(N2CCN(C)CC2)n1 4.25

---

Listed below: GI50 values for each entry.
Tested on: IGROV1 ovarian
Experiment: NCI tumour cell line growth inhibition, 48 h

Reference set, count: 8
Compound	GI50
NS(=O)(=O)c1ccc(N2Cc3cc(Cl)ccc3OC3=C2C(=O)N(CC2CCCCC2)C3=O)cc1	1.34 µM
COc1ccc(OC)c(-c2cc(-c3ccccc3)nn2-c2ccc(S(=O)(=O)NC(C)=O)cc2)c1	27.4 µM
CCN(CCCCCCCCCCN1CC(=O)N(CCCCCCCCCCN(CC)Cc2ccccc2OC)CC1=O)Cc1ccccc1OC	1.57 µM
Fc1cccc(COc2ccc(Nc3ncnc4sc(-c5ccco5)cc34)cc2Cl)c1	> 25 µM
CCN(c1ccc(CO)c(Cl)c1)C(C)c1ccc(F)cc1 (stereo not given)	0.891 µM
S=C(N/N=C/c1cc(Cl)cc(Cl)c1)NC12CC3CC(CC(C3)C1)C2	8.8 µM
Nc1cc(N)c2nc(-c3ccccc3)c(Oc3ccc(F)cc3)nc2c1	28.5 µM
COc1cc(/C=C2\CN(C)CC3=C2Nc2nc(SC)[nH]c(=O)c2C3c2cc(OC)c(OC)c(OC)c2)cc(OC)c1OC (stereo not given)	3.1 µM

Fill blank: measured GI50 of the compound COc1cc2cc(Oc3ccc(NC(=O)c4cccc(C(F)(F)F)c4)cc3)c(C)nc2cc1OC is ____. 6.78 µM

GET /values?readout=GI50&item= CC(C)N(C(C)C)[PH+]1O[PH+](N(C(C)C)C(C)C)O[PH+](N(C(C)C)C(C)C)O[PH+](N(C(C)C)C(C)C)O[PH+](N(C(C)C)C(C)C)O1.[C-]#[O+].[C-]#[O+].[C-]#[O+].[C-]#[O+].[C-]#[O+].[C-]#[O+].[C-]#[O+].[Cr].[Cr] (stereo not given) > 100 µM

---

System: OVCAR-3 ovarian
Assay: NCI tumour cell line growth inhibition, 48 h; in the data active = GI50 below about 0.43 µM; inactive = the rest
Please reply with one of these outcomes: y (active), n (inactive)

> print(dat)
                         structure.notation  assigned.category
1  O=C(O)c1cc[c]([Hg][S]c2ncnc3nc[nH]c23)cc1                  n
2  NS(=O)(=O)c1ccc(N2Cc3cc(Cl)ccc3OC3=C2C(=O)N(CC2CCCCC2)C3=O)cc1                  y
3  CC[O-].CC[O-].O=C1C(=C([O-])c2ccccc2)C(=O)c2ccccc21.O=C1C(=C([O-])c2ccccc2)C(=O)c2ccccc21.[Ti+4]                  n

# ---- query compound ----
Which outcome was assigned to O=C(Nc1ccc(OC(F)(F)F)cc1)c1sccc1NCc1ccnc2ccccc12 in this test? n

---

System: SK-MEL-5 melanoma
Assay: NCI tumour cell line growth inhibition, 48 h
Assay readout: TGI (µM)
Respond numerically; units are µM and should not be typed.

> print(dat)
                                   compound  measurement.target  assay.result
1  CC1(C)C(=O)C(O)=CC2C1=CCC1C2(C)C(=O)CC2(C)C(C(C)(O)C(=O)CC(O)C(C)(C)O)C(O)CC12C (centres undefined)   SK-MEL-5 melanoma          8.53

Form: Entry = CC(=O)OC1CC2(O)C(CCC3(C)C(c4ccc(=O)oc4)CCC32O)C2(C)C1=CC(O)C1OC12 (centres undefined) | System = SK-MEL-5 melanoma | TGI = ____ 0.0435

Reported TGI for SK-MEL-5 melanoma, given Clc1ccc([O][In]([O]c2ccc(Cl)cn2)[O]c2ccc(Cl)cn2)nc1 ? 76.8

---

Test system: RXF 393 renal
Assay: NCI tumour cell line growth inhibition, 48 h
TGI: recorded values

> print(dat)
                         structure.notation  measurement.target  assay.result
1  C=C1C(=O)O[C@@H]2C[C@@]3(C)CC(=O)C=C(C)[C@@H]3C[C@H]12       RXF 393 renal       18.2 µM

So what's the measured TGI for this one? Cc1ccc(S(=O)(=O)c2c(O)c3ccc(O)c(C)c3oc2=O)cc1 > 100 µM

Entry under review: O=C(Sc1c(-c2ccccc2)c(=O)n(-c2ccccc2)c(=S)n1-c1ccccc1)c1ccco1 . Reported TGI? > 100 µM

What does the data say about its TGI? Entry: CCOc1ccc(N=Nc2ccc3cc(/C(C)=N/NC(=O)/C(C#N)=C\c4ccc(N(CCC#N)CCC#N)cc4)c(=O)oc3c2)cc1 > 10 µM

Fill in: TGI of Cc1nc(SCC(N)=O)c2sc(=S)n(-c3ccccc3)c2n1 is ___ > 10 µM

---

Tested on: KM12 colon
Test: NCI tumour cell line growth inhibition, 48 h
Catalogue of TGI readings, one per entry.

Examples with answers:
> print(dat)
                                   molecule  assay.result
1  O=C1/C(=C/c2ccncc2)C(n2cccc2)c2c(Br)sc(Br)c21 (stereo unspecified)       24.7 µM
2             CCN(CC)c1ccc(NC(=S)NN(C)C)cc1       > 10 µM
3  Cc1cc(O)c2c(c1)C(O)(c1ccc3c(c1O)C(=O)c1c(O)cc(C)cc1C3(O)C1OC(CO)C(O)C(O)C1O)c1cccc(O)c1C2=O (stereo unspecified)         24 µM
4  N#C/C(=C\c1cccc(Br)c1)c1nc2ccccc2c(=O)[nH]1      > 100 µM
5  S=c1[nH]nc(Cn2c3ccc(Br)cc3c3nc4ccccc4nc32)n1C1CCCCC1      > 100 µM
6  COC(=O)C1=C(C(=O)OC)SC(=C2SC3=C(SC(=C4SCCS4)S3)S2)S1      > 100 µM
7  O=C(OC12CC3CC(CC(C3)C1)C2)c1ccc(NCc2cc(O)ccc2O)cc1       5.19 µM
8    O=C1/C(=C/c2ccc(Cl)cc2)CCCc2ccc(F)cc21       34.2 µM

Given the molecule O=C(/C=C\Nc1ccccc1O)C(F)(F)F , what is its reported TGI? > 100 µM

Item COc1cc(-c2oc3ccccc3c(=O)c2O)cc(OC)c1OC has what recorded TGI? > 100 µM

Which TGI reading was recorded for the molecule CC1(C)O[C@H]2OC3CCC(=O)CC3(O)[C@H]2O1 (stereo partly specified) ? > 100 µM

GET /values?readout=TGI&item= COc1ccc(C2SC(N)=Nc3c2c(C)nn3C(=O)c2ccc(Cl)cc2)cc1OC (stereo unspecified) > 10 µM

Quick one: TGI of CNC(=O)Nc1ccc(-c2nc(N3CCOCC3)nc3c2cnn3C2CCOCC2)cc1 ? > 100 µM

---

Test system: UO-31 renal
Assay: NCI tumour cell line growth inhibition, 48 h
As shown below, each of these compounds has a reported TGI value.
Entry rule: numbers only, all in µM.

Example entries and their recorded answers appear below.
> print(dat)
                                   compound  assay.readout  assay.result
1      CS(=O)(=O)c1ccc(Cl)c([N+](=O)[O-])c1            TGI          4.04
2  CC(C)c1cccc(C(C)C)c1NC(=O)C(=O)C(C(=O)c1ccccc1-c1ccccc1)C1OC(=O)c2ccccc21 (centres undefined)            TGI          36.5
3  O=C(c1ccccc1)c1c(CC(O)c2cccnc2)n(C(=O)c2ccccc2)c2ccccc12 (centres undefined)            TGI          32.6

# evaluate next
Bench note: what TGI did N/C(=N\OC(=O)c1ccccc1)C(C(=O)NOC(=O)c1ccccc1)C1CCCCC1 (centres undefined) show? 3.96

These measurements were taken from PubChem BioAssay (NCI).
